read-out: Interleukin-8 (IL8), CXCL8 (gene 3576); assay: BSK_LPS_IL8: BioMAP Diversity Plus: LPS Assay for Interleukin-8 (IL8) Biomarker Activity (AID 2283078); conditions: primary human HUVEC with PBMC; actives raise or lower the signal
Active and inactive are the calls of the source. The calls were made as follows: active = hit-call score of the fitted dose curve at least 0.9, where 1 is the maximum; inactive = score below 0.9.
Mark one answer only. Choices: active, inactive

Worked cases, answers included:
* CCCCCCCC=O | inactive
* Nc1nc(N)c2nc(CNc3ccc(C(=O)N[C@@H](CCC(=O)O)C(=O)O)cc3)cnc2n1 | inactive
* CC(=O)C(C)=CC1C(C)=CCCC1(C)C (centres undefined) | inactive

(Q) Call for entry C[Si]1(C)O[Si](C)(C)O[Si](C)(C)O[Si](C)(C)O1 :
(A) inactive

(Q) Call for entry CC(C)c1ccc(C(=O)N=C(N)N)cc1S(C)(=O)=O :
(A) inactive

(Q) Call for entry CC(=O)Oc1ccccc1C(=O)O :
(A) inactive

Where do these numbers come from? They come from PubChem BioAssay (EPA / NIEHS).
